Measurement notes: Solubility by shake-flask method (SFM) with HPLC
Assay type: physicochemical
Conditions used: pH 6.5, PBS; pH 6.5; 25 °C; n = 3; read-out: Solubility
Endpoint name: solubility (mg/mL)
Return type: number; implicit unit mg/mL.

input: I'd like to know its solubility. The molecule in question is CC[C@H](C)[C@H](NC(=O)[C@H](Cc1ccc(O)cc1)NC(=O)[C@@H](NC(=O)[C@H](CCCNC(=N)N)NC(=O)[C@@H](N)CC(=O)O)C(C)C)C(=O)N[C@@H](Cc1c[nH]cn1)C(=O)N1CCC[C@H]1C(=O)O [Ang (1—7), Asp-Arg-Val-Tyr-Ile-His-Pro]
output: 165
